Tested on: pupil light reflex of rabbit eye
assayOverview: Rabbit abolition of light reflex assay (RALR), mydriasis
conditionSet: rabbit, in vivo
// classify: if (RALR (60 min.) < 0.9) 1 (yes) else 0 (no)

{"compound": "CC1CC(OC(=O)C(OC(=O)c2ccncc2)c2ccccc2)CC(C)(C)N1C.Cl (stereo not drawn)", "group": "1 (yes)"}
{"compound": "O=C(O)C1CCCC1 [Cyclopentanecarboxylate]", "group": "1 (yes)"}
{"compound": "CC1CC(OC(=O)C(OC(=O)CC2CCCC2)c2ccccc2)CC(C)(C)N1C.Cl (stereo not drawn)", "group": "0 (no)"}
{"compound": "CC1CC(OC(=O)C(OC(=O)C2CCC2)c2ccccc2)CC(C)(C)N1C.Cl (stereo not drawn)", "group": "0 (no)"}

Data request: hey, is RALR (60 min.) for CC1CC(OC(=O)C(OC(=O)CC2CCCCC2)c2ccccc2)CC(C)(C)N1C.Cl (stereo not drawn) lower than 0.9 or not?
Data returned: 1 (yes)

Data request: hey, is RALR (60 min.) for CC1CC(OC(=O)C(OC(=O)c2ccccn2)c2ccccc2)CC(C)(C)N1C.Cl (stereo not drawn) lower than 0.9 or not?
Data returned: 1 (yes)

Data request: hey, is RALR (60 min.) for CC1CC(OC(=O)C(OC(=O)C2CC2)c2ccccc2)CC(C)(C)N1C.Cl (stereo not drawn) lower than 0.9 or not?
Data returned: 0 (no)

Data request: hey, is RALR (60 min.) for CC1CC(OC(=O)C(O)c2ccccc2)CC(C)(C)N1C (stereo not drawn) lower than 0.9 or not?
Data returned: 0 (no)
